# EXPERIMENT NOTES: yeast display, Sf9 membrane polyspecificity reagent, FACS + sequencing; frameworks hold sequencing errors

BIOSEQUENCE: QVQLVESGGGLVQAGGSLRLSCAASGSIFPQYAMGWYRQAPGKERELVAAITRSGGGTHYADSVKGRFTISRDYAKNTVYFQMNSLKPEDTAVYYCAKAGYRSEFEYWGQGTQVTVSS
polyreactivity (PSR sort gate): low polyreactivity

BIOSEQUENCE: QVQLVESGGGLVQAGGSLRLSCAASGLTFSRYAMGWYRQAPGKERELVAAISSSGTRTYYADSVKGRFTISPDNPKNTVYLQMNSLKPEDTAVYYCNAYYAPRGYGYWGQGTQVTVSS
polyreactivity (PSR sort gate): high polyreactivity

BIOSEQUENCE: QVQLVESRGGLVQAGGSLRLSCAASGFIFVSYTMGWYRQAPGKERDLVATITLSDGSTYYADSVQGRFTISRDNAKNTVYLQMNSLKPEDTAVYSGNKDKVVVRYDYWGQGTQVTVSS
polyreactivity (PSR sort gate): low polyreactivity

BIOSEQUENCE: QVQLVESGGGLVQAGGSLRLSCAASGSIFYSNAMGWYRQAPGKERELVAAINWRGGSTYYADSVKGRFTISRDYAKNTVYLQMNSLKPEDTAVYYCNADSYDEIKYGYWGQGTQVTVSS
polyreactivity (PSR sort gate): low polyreactivity

BIOSEQUENCE: QVQLVESGGGLVQAGGSLRLSCAASGIILDPNAMGGYRQAPGKERELVAGITRSGVSTYYADSVKGRFTISRDNAKNTVYLQMKSLKPEDTAVYYCAKDRIYGSKGEDDDYWGQGTQVTVSS
polyreactivity (PSR sort gate): low polyreactivity

BIOSEQUENCE: QVQLVESGGGLVQAGGSLSLSCAASGSTFARYAMGWYRQAPGKERELVAAISITGSTYYADSVKGRFTISRDNAKNTVYLQMKSLKPEDTAVYYCNVKSKYRYGYWGQGTQVTVSS
polyreactivity (PSR sort gate): high polyreactivity

BIOSEQUENCE: QVQLVESGGGLVQAGGSLRLSCAASGFIFAEYAMGWSRQAPGQEREFVATINIGGSTYYADSVKGRFTISRDNAKNTVYLQMNSLKPEDTAVYYCAAEFWWGDGSQGIYDYDYWGQGTQVTVSS
polyreactivity (PSR sort gate): low polyreactivity

BIOSEQUENCE: QVQLVESGGGLVQAGGSLRLSCAASGSTFTAYAMGWYRQAPGKERELVADISKRSGGTYYADSVKGRFTISRDNAKNTVYLQMNSLKPEDTAVYYCGQGTQVTVSS
polyreactivity (PSR sort gate): low polyreactivity

BIOSEQUENCE: QDQHVESGGGLVQAGGSLRLSCDASGITFWYYAMGWYRQAPGKERELVAAISRRGGATYYADSVKGRFTISRDNAKNTVYLQLNSLKPEDTAVYYCNALLAGRRVARGYDSWGQGTQVTVSS
polyreactivity (PSR sort gate): high polyreactivity

BIOSEQUENCE: QVQLVESGGGLVQAGGSLRLRCAASGSIFWYYTMGWYRQAPGIERELVATLTRSGSRTYDADSVKGRCTISRDNAKNTVYLQMNSLKPEDTAVYYCAKDYGPWTYDYWGQGTQVTVSS
polyreactivity (PSR sort gate): low polyreactivity

BIOSEQUENCE: QVQLVESGGGLVQAGGTLRLSCAASGSIFYYYAMGWYRQAPGKERELVDTISSSSGSTYYADSVKGRFTISRDNAKNTVYLQMISLKPEDTAVYYCAAPLPHRGYYEGYWGQRTQVTVSS
polyreactivity (PSR sort gate): low polyreactivity

BIOSEQUENCE: QVQLVESGAGLVQAGGSLRLSCAASGPILRTYAKGWYRQAPGKERELVAAISRSGGSSYYADSVKGRFTLSRDNAKNTVYLLMNSLKPEDTAVYYCNKAYGGRGYKYEYWGQGSQVTVSS
polyreactivity (PSR sort gate): high polyreactivity

BIOSEQUENCE: QVQLVESGGGLVQAGGSLRLSCAASGFIFYYYAMGWYRQAPGKERELVAVLAVSGSSTYYADSEKGRFTISRDNAKNIVFLQKNSLKPEDTAVYYCNADFWPYTGKYDYWGQGTQVTVSS
polyreactivity (PSR sort gate): low polyreactivity

BIOSEQUENCE: QVQLVESGGGLVQAGGSLRLSCAASGFTFSSNAMGWYRQAPGKQRELVAAISKGGGSTYYADSVKGRFTISRDNAKNTGYLQMNSLKPEDTAVYYCAKEYDTYAYTYPYNYWGQGTQVTVSS
polyreactivity (PSR sort gate): high polyreactivity

BIOSEQUENCE: QVQLVESGGGLVQAGGTLRLSCAASGLIFFFYAMGWYRQAPGKERELVAAISDDGVSTDYADSVKGRFTISRDNAKNTVYLQMNSLKPEDTAVYYCAAKTERVYPWFSFGYWGQGTQVTVSS
polyreactivity (PSR sort gate): low polyreactivity

BIOSEQUENCE: QVQLVESGGGLVQAGGSLRLSCAASGSTFVPYAMGWYRQAPGKERELVAGITFSGGSTYYADSVKGRFTIPRDNAKNTVYLQMNSLKPEDTAVYYCARAGGYPLSRYGYWGQGTQVTVSS
polyreactivity (PSR sort gate): high polyreactivity

BIOSEQUENCE: QVQLVESGGGLVQAGGSLRLSCAASGSTFYSYAMGWYRQAPGKERELVAAIDSGGSTYYADTVKGRFTISRDNAKTTVYLQKNSLKPEDTAVYYCAVRVTSYYRTKDYWGQGTQVTVSS
polyreactivity (PSR sort gate): low polyreactivity

BIOSEQUENCE: QVQLVEAGGGLVQAGGSLRLSCAASGGTFNSNAMGWYRQAPGKERELGASITWRGGTYYADSVKGRFTISRDNAKNTVYLQMNSLKPEDTAVYYCAARGTIPGIHWIYYYWGQGTQVTVSS
polyreactivity (PSR sort gate): high polyreactivity

BIOSEQUENCE: QVQLVESGGGLFQEGGSLRLSCAASGFTFLVYAKGWYRQAPGKERQLVAAITWSGDSTYYADSVKGRFTISRDNAKNTVYLQMNSLKPEDTAFYYCAAAYRYGTLYYYWGQGTQVTVSS
polyreactivity (PSR sort gate): low polyreactivity

BIOSEQUENCE: QVQLVESGAGIVQAGGSLRLSCAASGRTCTWYAMGWYTQAPGKERELVAAISKSGGSTYYADSVKGRFTISRDTAKNTVFLQMNSLKPEDTAVYYCNADFYGYFLGYGYWGQGTQVTVSS
polyreactivity (PSR sort gate): low polyreactivity

BIOSEQUENCE: QVQLVESGGGLVQAGGSLRISCAASGITFYGYAMGWYRQAPGKERELVATISKSGGITSYADSVKGRFSISRDNAKNTVYLQMNSLKPEETAVYYCNRGKSYGGYDYWGQGTQVTVSS
polyreactivity (PSR sort gate): low polyreactivity
